# PROTOCOL DETAILS: Solubility of abiraterone acetate in phosphate buffer and various amounts of organic acids
# Assay type: physicochemical
# DETAILS: phosphate buffer with ascorbic acid, pH 2.4, aqueous buffer, thermodynamic from solid; phosphate buffer, ascorbic acid 0.5 mol/L, 25° C.; read-out: Solubility S
MEASURED ATTRIBUTE: solubility (µg/mL)
Field: numeric (µg/mL). Do not append units.

INPUT: Consider the compound CC(=O)O[C@H]1CC[C@@]2(C)C(=CC[C@@H]3[C@@H]2CC[C@]2(C)C(c4cccnc4)=CC[C@@H]32)C1 [Abiraterone acetate] . State its measured solubility.
OUTPUT: 33

---

# PROTOCOL DETAILS: Solubility of abiraterone acetate in phosphate buffer and various amounts of organic acids
# Type: physicochemical
# DETAILS: phosphate buffer with citric acid, 25 °C, pH 2.3, aqueous buffer, thermodynamic from solid; read-out: Solubility S
MEASURED ATTRIBUTE: solubility (µg/mL)
Field: numeric (µg/mL). Do not append units.

INPUT: Consider the compound CC(=O)O[C@H]1CC[C@@]2(C)C(=CC[C@@H]3[C@@H]2CC[C@]2(C)C(c4cccnc4)=CC[C@@H]32)C1 [Abiraterone acetate] . State its measured solubility.
OUTPUT: 14

---

# PROTOCOL DETAILS: Solubility of abiraterone acetate in phosphate buffer and various amounts of organic acids
# Assay type: physicochemical
# DETAILS: pH 3.1, aqueous buffer, thermodynamic from solid; phosphate buffer, no acid added, 25° C.; read-out: Solubility S
MEASURED ATTRIBUTE: solubility (µg/mL)
Field: numeric (µg/mL). Do not append units.

INPUT: Consider the compound CC(=O)O[C@H]1CC[C@@]2(C)C(=CC[C@@H]3[C@@H]2CC[C@]2(C)C(c4cccnc4)=CC[C@@H]32)C1 [Abiraterone acetate] . State its measured solubility.
OUTPUT: 2

---

# PROTOCOL DETAILS: Solubility of abiraterone acetate in phosphate buffer and various amounts of organic acids
# Assay type: physicochemical
# DETAILS: phosphate buffer with ascorbic acid, pH 2.8, aqueous buffer, thermodynamic from solid; phosphate buffer, ascorbic acid 0.1 mol/L, 25° C.; read-out: Solubility S
MEASURED ATTRIBUTE: solubility (µg/mL)
Field: numeric (µg/mL). Do not append units.

INPUT: Consider the molecule CC(=O)O[C@H]1CC[C@@]2(C)C(=CC[C@@H]3[C@@H]2CC[C@]2(C)C(c4cccnc4)=CC[C@@H]32)C1 [Abiraterone acetate] . State its measured solubility.
OUTPUT: 5
